- Tested on: HOP-92 NSCLC
- assay-text: NCI tumour cell line growth inhibition, 48 h
Kindly supply the reported TGI values for the records listed here.
Response body: numeric value in µM, unit text excluded.

Find the recorded TGI belonging to `CSc1scc2c1/C(=N/NC(N)=O)CCC2` and report it.
90

What TGI value was documented for this compound, `O=C(CCc1ccc(O)cc1)N/N=C/c1cc(Br)ccc1O` ?
49.3

====

- Test system: EKVX NSCLC
- assay-text: NCI tumour cell line growth inhibition, 48 h
Kindly supply the reported TGI values for the records listed here.

Could you share which TGI value was measured for `O=C(N/N=C/c1cc(Br)cc(Br)c1[O-])c1ccccc1O.O=C(N/N=C/c1cc(Br)cc(Br)c1[O-])c1ccccc1O.[Ni+2]` ?
2.97 µM

# lookup: TGI of Oc1ccc(Cl)cc1C1=NC(/N=C\c2ccccc2)=NC(c2ccccc2)C1 (stereo not given)
> 100 µM

If you can, please state the reported TGI value of `O=[N+]([O-])c1ccc(C=NC23CC4CC(CC(C4)C2)C3)cc1` .
> 100 µM

// returns reported TGI for input CCOC(=O)[C@@H]1ON2OC(OC3CCCC3(c3ccccc3)c3ccccc3)C(OC(C)=O)[C@H]3OC(=O)[C@@H]1C32 (stereo not given in full)
> 100 µM

Fill in: TGI of `CC(=O)c1nc2ccccc2n1CC(=O)c1cccc(Cl)c1` is ___
> 100 µM

State the recorded TGI for this entry: `C=C(C)CNC(=S)N(N)c1ccc2ccccc2c1`
88.9 µM

Sample `C=CCn1c(-c2ccc([N+](=O)[O-])cc2)csc1=N` — what was its TGI?
> 100 µM

If you can, please state the reported TGI value of `[N-]=[N+]=C(C(=O)N1CCCC1=O)S(=O)(=O)c1ccccc1` .
> 100 µM

Query: TGI; subject: `CCC[C@@H]1C(=O)N=C(N)N1C(=O)OCc1ccccc1`
> 100 µM

Entry `CC1=NN(c2nc(N)nc(/C=C\c3ccc([N+](=O)[O-])s3)n2)C(C)(C)C1` : reported TGI = ?
> 100 µM
